Test system: MS2 coat protein
Test: apparent Kd, MS2 coat protein; higher = weaker binding; RNA-MaP array; theophylline 2 mM where present
Settings: designed as: OFF switch for theophylline; no ligand
Each item that follows carries a reported apparent Kd.

{"residue codes": "CAAUACGUAACUGAUACCAGUGUACUGACAUGAGGAUCACCCAUGUUGGGUUUUGUUGUACACCCUUGGCAGCAGAAUCGUAUUG", "unit annotation": "nM", "apparent Kd": 70.1}
{"residue codes": "ACGAACGAUAGUGAUACCAGACGUACAUGAGGAUCACCCAUGUUUUGGGUAAGGUUAAUAGUCCCUUGGCAGCACUUUAAGUUCG", "unit annotation": "nM", "apparent Kd": 58.7}
{"residue codes": "AGCGACAUGCGUGAUACCAGCUACAUGAGGAUCACCCAUGUAAGUAGGAAACUACUGUGUAGCCCUUGGCAGCAUAGUGCAUGUC", "unit annotation": "nM", "apparent Kd": 13.5}
{"residue codes": "UGACAUUGCUGCGAUACCAGACAUGAGGAUCACCCAUGUGCCAAAUAAACGUACAUAAAUGUCCCUUGGCAGCGCAGCAAUGUCU", "unit annotation": "nM", "apparent Kd": 64.4}
{"residue codes": "GAGCUGAUGUAGAAAUUUUAUUUCUGAGAUACCAGUACAGAAAUGUACCCUUGGCAGCUCAGUUUUACAUGAGGAUCACCCAUGU", "unit annotation": "nM", "apparent Kd": 12.2}
{"residue codes": "CGAUACGUAACUGAUACCAGUGUACUGACAUGAGGAUCACCCAUGUUGGGUUUUGUUGUACACCCUUGGCAGCAGAAUCGUAUCG", "unit annotation": "nM", "apparent Kd": 67.5}
{"residue codes": "ACAUCCAGGUUAAUCGUGGGCAUGGUCGAUACCAGUAUUUUAAUCUACCCUUGGCAGCGACAUGAGGAUCACCCAUGUGCGAUGA", "unit annotation": "nM", "apparent Kd": 24.6}

---

Tested on: MS2 coat protein
Assay: apparent Kd, MS2 coat protein; higher = weaker binding; RNA-MaP array
Conditions: ligand present: flavin mononucleotide; designed as: ON switch for flavin mononucleotide

{"residue codes": "AGACAUGAGGAUCACCCAUGUUUGUGUAUCUGACCGCGCACUAGAAGGGAUUGGACAACUUACUAUCAGGAUAUAGACAACGGU", "unit annotation": "nM", "apparent Kd": 6.95}
{"residue codes": "GUGUUACAUGAGGAUCACCCAUGUGUCUGAUGUCAAGGAUAUGACUCUUCCUUCACAAAGUCAGAAGGUGAUAUCA", "unit annotation": "nM", "apparent Kd": 12.8}
{"residue codes": "AGUACAAUAUUAGGAUAUUGACAAAACAUGAGGAUCACCCAUGUAAGGCAAGUGCAAGGGAGAGUCAAGAAGGAAAACUGAGUU", "unit annotation": "nM", "apparent Kd": 30}
{"residue codes": "UUUGUAUAGCAGAAGGCGUUAUUAGGAUGGCUACGAGGAUAUGCGGUACUCUAUUAGUACAUGAGGAUCACCCAUGUGUGGGCC", "unit annotation": "nM", "apparent Kd": 145}
{"residue codes": "UACAUGAGGAUCACCCAUGUGUGUAGCUAUUACUGUUACAUCUAGGAUAUGUCGGGAACUCAACAACAGAAGGAGAUAGAAGGA", "unit annotation": "nM", "apparent Kd": 33.8}
{"residue codes": "AGUGUAUACAAGAAGGAACAUGGACUAGGAUUGUUAGGAUAUUGCAUAAACAUGAGGAUCACCCAUGUGCGACACGCCCACAUC", "unit annotation": "nM", "apparent Kd": 21.7}
{"residue codes": "CAUACGCCGCAGAAGGAAGGACAGACAUGAGGAUCACCCAUGUACACCGGUUUAUUGGGUGCACCUUAGGAUAUGCAAAAGAAC", "unit annotation": "nM", "apparent Kd": 132}

---

Measured apparent Kd of individual entries
Tested on: MS2 coat protein
Assay: apparent Kd, MS2 coat protein; higher = weaker binding; RNA-MaP array
Conditions: designed as: ON switch for flavin mononucleotide; no ligand

{"residue codes": "UCCACGGACCAAGGAUAUCCACAGUGAACCAGAGGAGAAGGUGGGAAUUACAUGAGGAUCACCCAUGUACGGGAUCUCCUGUAU", "apparent Kd (nM)": 47.5}
{"residue codes": "ACCCUCUAUGAGAAGGAGAGCUUCGCUAGUUAUCUAGGAUAUCACGGAGGACCACUGACACUCCGACAUGAGGAUCACCCAUGU", "apparent Kd (nM)": 16.5}
{"residue codes": "GCAAUACAUGAGGAUCACCCAUGUUUUAGAUACGAAGGAUAUGUGUAAGCGUACUAAUGUACAGAAGGUCGGAUUU", "apparent Kd (nM)": 13.1}
{"residue codes": "GCUAUAUCGUAGCUAACAUGAGGAUCACCCAUGUGAAGGAAGAGAAGGUGCAUCUAACAGACCCGCAAGGAUAUCUAGAUAAAG", "apparent Kd (nM)": 18.8}
{"residue codes": "CAUACGCCGCAGAAGGAAGGACAGACAUGAGGAUCACCCAUGUACACCGGUUUAUUGGGUGCACCUUAGGAUAUGCAAAAGAAC", "apparent Kd (nM)": 268}
{"residue codes": "AGUGGGUAUGGGCAGGAUAUACGUCGGGCGACAUGAGGAUCACCCAUGUUGGGCGGUGAAGUUGAGUAGAAGGGCCUCCGCCCGAA", "apparent Kd (nM)": 54.6}
{"residue codes": "AGUACAAUAUUAGGAUAUUGACAAAACAUGAGGAUCACCCAUGUAAGGCAAGUGCAAGGGAGAGUCAAGAAGGAAAACUGAGUU", "apparent Kd (nM)": 38.4}

---

Reported apparent Kd by item:
System: MS2 coat protein
Experiment: apparent Kd, MS2 coat protein; higher = weaker binding; RNA-MaP array; theophylline 2 mM where present
Details: designed as: ON switch for theophylline; no ligand

{"residue codes": "GAUCUGUCGGGUGAUACCAGCCUCGGCACAUCUCGUGCCGAACAUGAGGAUCACCCAUGUGGCCCUUGGCAGCACAUGACAAAUC", "apparent Kd (µM)": 0.362}
{"residue codes": "ACCCUAGCGAUCGCUCGCUAGGGUGCGGAUACCAGCGAGGUCCAUCGCCCUUGGCAGCCGAACAUGAGGAUCACCCAUGUCGGUA", "apparent Kd (µM)": 0.0107}
{"residue codes": "ACAUGAGGAUCACCCAUGUCAAGGCACGAUACCAGCUGAUCCCGUGGCCCUUGGCAGCGUCACGUUUGGUCCCGCGGAUGACACG", "apparent Kd (µM)": 0.089}
{"residue codes": "AUCGUACCUGAAGAUACCAGCAUGUGAUCAUAACAUGAGGAUCACCCAUGUAAUCAGUGAUGCCCUUGGCAGCUUGAUCGGUACA", "apparent Kd (µM)": 0.0408}
{"residue codes": "GCUGUAAGUGCAGAUACCAGCAAGUGAGGUUUCAUAUGACAUGAGGAUCACCCAUGUAUCUGCCCUUGGCAGCUGCACUUACAGC", "apparent Kd (µM)": 0.0214}
{"residue codes": "AGUACACGAACGGAUACCAGCCGGACAUGAGGAUCACCCAUGUCCUACCUCUGUUCGGUUGGCCCUUGGCAGCCGUUCGUGUACA", "apparent Kd (µM)": 0.117}
{"residue codes": "CAGGUGCAGUCAGAUACCAGAUCUGCACAUGAGGAUCACCCAUGUGUAAUGAGUUCAAAGAUCCCUUGGCAGCUGUGUGAUCCGA", "apparent Kd (µM)": 0.165}
{"residue codes": "AAUUUGUCGGGUGAUACCAGCCUCGGCGCGUCUCGCGCUGAACAUGAGGAUCACCCAUGUGGCCCUUGGCAGCACAUGACAAAUC", "apparent Kd (µM)": 0.67}
{"residue codes": "GGUGGUGGGACGGAUACCAGCCACCGCGGCAACGCAACAUGAGGAUCACCCAUGUUGGGUGGCCCUUGGCAGCUGUCCUGCGGCG", "apparent Kd (µM)": 0.0139}
{"residue codes": "UCGUGUGUUUCGGAUACCAGUGAAAUCGAUACAUGAGGAUCACCCAUGUGAGAGGAUGUACACCCUUGGCAGCUGGCUGUUGCGG", "apparent Kd (µM)": 0.0424}
{"residue codes": "CCUGCGUUUCUUUUCUUUCGCAGGAAUGAUACCAGUAGGGAAACCUACCCUUGGCAGCAUGGGUAACAUGAGGAUCACCCAUGUU", "apparent Kd (µM)": 0.473}
{"residue codes": "CAUACUUUAGUAUGACAUGUGGGCAGUGAUACCAGAUACGAAAGUAUCCCUUGGCAGCACAACAUGAGGAUCACCCAUGUAAUUA", "apparent Kd (µM)": 0.0296}
{"residue codes": "AGAUUACAUGUUAUAAUACGGUAUACUGAUACCAGUGUUUCUAUUCACCCUUGGCAGCAGCAACAUGAGGAUCACCCAUGUAUUA", "apparent Kd (µM)": 0.0171}
{"residue codes": "UUUACAUGAGGAUCACCCAUGUGCCAUGAUACCAGACAUGAAAAUGUCCCUUGGCAGCAUGAAUAAUCCUCGUCGGGAAACCGAC", "apparent Kd (µM)": 0.14}
